Data provenance: ChEMBL document CHEMBL1833819

molecular target: Trypanothione reductase (Trypanosoma brucei brucei, UniProt P39051); test: Competitive inhibition of recombinant trypanothione reductase from Trypanosoma brucei brucei S427 by Lineweaver burk method
Sequence (P39051 whole entry): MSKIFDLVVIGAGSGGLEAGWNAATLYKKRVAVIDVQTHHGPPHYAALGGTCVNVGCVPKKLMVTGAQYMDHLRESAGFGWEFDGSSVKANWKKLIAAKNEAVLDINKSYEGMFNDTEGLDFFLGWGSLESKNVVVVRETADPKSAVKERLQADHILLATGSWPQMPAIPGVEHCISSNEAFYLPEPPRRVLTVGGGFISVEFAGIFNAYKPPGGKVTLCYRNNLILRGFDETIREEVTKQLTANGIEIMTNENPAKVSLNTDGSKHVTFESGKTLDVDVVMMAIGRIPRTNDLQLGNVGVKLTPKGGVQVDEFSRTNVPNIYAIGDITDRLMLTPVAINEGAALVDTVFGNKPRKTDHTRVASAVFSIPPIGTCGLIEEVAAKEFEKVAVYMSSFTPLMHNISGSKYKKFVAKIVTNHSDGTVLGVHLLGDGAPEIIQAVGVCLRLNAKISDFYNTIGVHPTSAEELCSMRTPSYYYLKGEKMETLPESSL
endpoint_name: pKi
FYI, pKi means -log10 of a concentration in mol per litre.

compound | pKi
CC1=Nc2ccc(Cl)cc2C(c2ccccc2)N1CCN1CCN(C(=O)CN(C)C)CC1 (racemic) | 6.57
CC1=Nc2ccc(Cl)cc2C(c2ccccc2)N1CCNC(=O)c1ccco1 (racemic) | 6.36
CC1=Nc2ccc(Cl)cc2C(c2ccc(C)cc2)N1CCCN(C)C (racemic) | 6.72

Continue with the next compound.
Note to self: pKi recorded for CC1=Nc2ccc(Cl)cc2C(c2ccccc2)N1CCN1CCN(C)CC1 (racemic) was 6.49
